biological target: fusion protein PRN
Sequence (chain, as listed by the source): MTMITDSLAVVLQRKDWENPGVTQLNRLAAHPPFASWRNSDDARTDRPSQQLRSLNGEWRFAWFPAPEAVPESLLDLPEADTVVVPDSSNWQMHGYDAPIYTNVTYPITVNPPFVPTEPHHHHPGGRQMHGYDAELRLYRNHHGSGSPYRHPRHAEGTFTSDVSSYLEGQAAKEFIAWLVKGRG
observable: relative cleavage efficiency

See these solved cases before continuing.
• OmpT protease variant OmpT D97P (protein) STETLSFTPDNINADISLGTLSGKTKERVYLAEEGGRKVSQLDWKFNNAAIIKGAINWDLMPQISIGAAGWTTLGSRGGNMVDQDWMDSSNPGTWTPESRHPDTQLNYANEFDLNIKGWLLNEPNYRLGLMAGYQESRYSFTARGGSYIYSSEEGFRDDIGSFPNGERAIGYKQRFKMPYIGLTGSYRYEDFELGGTFKYSGWVESSDNDEHYDPGKRITYRSKVKDQNYYSVAVNAGYYVTPNAKVYVEGAWNRVTNKKGNTSLYDHNNNTSDYSKNGAGIENYNFITTAGLKYTF = less than 3.0%
• OmpT protease variant OmpT D97Q (protein) STETLSFTPDNINADISLGTLSGKTKERVYLAEEGGRKVSQLDWKFNNAAIIKGAINWDLMPQISIGAAGWTTLGSRGGNMVDQDWMDSSNPGTWTQESRHPDTQLNYANEFDLNIKGWLLNEPNYRLGLMAGYQESRYSFTARGGSYIYSSEEGFRDDIGSFPNGERAIGYKQRFKMPYIGLTGSYRYEDFELGGTFKYSGWVESSDNDEHYDPGKRITYRSKVKDQNYYSVAVNAGYYVTPNAKVYVEGAWNRVTNKKGNTSLYDHNNNTSDYSKNGAGIENYNFITTAGLKYTF = < 3%
• OmpT protease variant OmpT D97R (protein) STETLSFTPDNINADISLGTLSGKTKERVYLAEEGGRKVSQLDWKFNNAAIIKGAINWDLMPQISIGAAGWTTLGSRGGNMVDQDWMDSSNPGTWTRESRHPDTQLNYANEFDLNIKGWLLNEPNYRLGLMAGYQESRYSFTARGGSYIYSSEEGFRDDIGSFPNGERAIGYKQRFKMPYIGLTGSYRYEDFELGGTFKYSGWVESSDNDEHYDPGKRITYRSKVKDQNYYSVAVNAGYYVTPNAKVYVEGAWNRVTNKKGNTSLYDHNNNTSDYSKNGAGIENYNFITTAGLKYTF = less than 3.0%
• OmpT protease variant OmpT D97F (protein) STETLSFTPDNINADISLGTLSGKTKERVYLAEEGGRKVSQLDWKFNNAAIIKGAINWDLMPQISIGAAGWTTLGSRGGNMVDQDWMDSSNPGTWTFESRHPDTQLNYANEFDLNIKGWLLNEPNYRLGLMAGYQESRYSFTARGGSYIYSSEEGFRDDIGSFPNGERAIGYKQRFKMPYIGLTGSYRYEDFELGGTFKYSGWVESSDNDEHYDPGKRITYRSKVKDQNYYSVAVNAGYYVTPNAKVYVEGAWNRVTNKKGNTSLYDHNNNTSDYSKNGAGIENYNFITTAGLKYTF = < 3%
• OmpT protease (wild-type, E. coli mature OmpT protease) (protein) STETLSFTPDNINADISLGTLSGKTKERVYLAEEGGRKVSQLDWKFNNAAIIKGAINWDLMPQISIGAAGWTTLGSRGGNMVDQDWMDSSNPGTWTDESRHPDTQLNYANEFDLNIKGWLLNEPNYRLGLMAGYQESRYSFTARGGSYIYSSEEGFRDDIGSFPNGERAIGYKQRFKMPYIGLTGSYRYEDFELGGTFKYSGWVESSDNDEHYDPGKRITYRSKVKDQNYYSVAVNAGYYVTPNAKVYVEGAWNRVTNKKGNTSLYDHNNNTSDYSKNGAGIENYNFITTAGLKYTF = < 3%
• OmpT protease variant OmpT D97V (protein) STETLSFTPDNINADISLGTLSGKTKERVYLAEEGGRKVSQLDWKFNNAAIIKGAINWDLMPQISIGAAGWTTLGSRGGNMVDQDWMDSSNPGTWTVESRHPDTQLNYANEFDLNIKGWLLNEPNYRLGLMAGYQESRYSFTARGGSYIYSSEEGFRDDIGSFPNGERAIGYKQRFKMPYIGLTGSYRYEDFELGGTFKYSGWVESSDNDEHYDPGKRITYRSKVKDQNYYSVAVNAGYYVTPNAKVYVEGAWNRVTNKKGNTSLYDHNNNTSDYSKNGAGIENYNFITTAGLKYTF = less than 3.0%

The reported relative cleavage efficiency of the protein OmpT protease variant OmpT D97K (protein) STETLSFTPDNINADISLGTLSGKTKERVYLAEEGGRKVSQLDWKFNNAAIIKGAINWDLMPQISIGAAGWTTLGSRGGNMVDQDWMDSSNPGTWTKESRHPDTQLNYANEFDLNIKGWLLNEPNYRLGLMAGYQESRYSFTARGGSYIYSSEEGFRDDIGSFPNGERAIGYKQRFKMPYIGLTGSYRYEDFELGGTFKYSGWVESSDNDEHYDPGKRITYRSKVKDQNYYSVAVNAGYYVTPNAKVYVEGAWNRVTNKKGNTSLYDHNNNTSDYSKNGAGIENYNFITTAGLKYTF was less than 3.0%

The reported relative cleavage efficiency of the protein OmpT protease variant OmpT D97L (protein) STETLSFTPDNINADISLGTLSGKTKERVYLAEEGGRKVSQLDWKFNNAAIIKGAINWDLMPQISIGAAGWTTLGSRGGNMVDQDWMDSSNPGTWTLESRHPDTQLNYANEFDLNIKGWLLNEPNYRLGLMAGYQESRYSFTARGGSYIYSSEEGFRDDIGSFPNGERAIGYKQRFKMPYIGLTGSYRYEDFELGGTFKYSGWVESSDNDEHYDPGKRITYRSKVKDQNYYSVAVNAGYYVTPNAKVYVEGAWNRVTNKKGNTSLYDHNNNTSDYSKNGAGIENYNFITTAGLKYTF was < 3%

Origin of values: patent US20070077617
